Attribution: ChEMBL document CHEMBL1141418

# Species on record: Rattus norvegicus
# assay-protocol: Antidiuretic activity in rat
# Format: functional, Urine
Positions of bridges follow the written chain, without caps; N, C: chain ends. Non-standard residues stand in square brackets, D forms with d. Residues, ends and D or L forms follow the SMILES beside them. Cha = N[C@@H](CC1CCCCC1)C(=O)O; Dab = NCC[C@H](N)C(=O)O; Dap = NC[C@H](N)C(=O)O; Mpa = O=C(O)CCS
Known Activity of a selection of molecules
Express the reported value numerically, then name its unit.

Illustrative cases are given below, each with its answer.
NC[C@H](NC(=O)[C@@H]1CCCN1C(=O)[C@@H]1CSSCCC(=O)N[C@@H](Cc2ccc(O)cc2)C(=O)N[C@@H](Cc2ccccc2)C(=O)N[C@@H](CC2CCCCC2)C(=O)N[C@@H](CC(N)=O)C(=O)N1)C(=O)NCC(N)=O ([Mpa]YF[Cha]NCP[Dap]G-NH2; disulfide 1-6) ... 0.3 U/mg
NCCCC[C@H](NC(=O)[C@@H]1CCCN1C(=O)[C@@H]1CSSCCC(=O)N[C@@H](Cc2ccc(O)cc2)C(=O)N[C@@H](Cc2ccccc2)C(=O)N[C@@H](CCC(N)=O)C(=O)N[C@@H](CC(N)=O)C(=O)N1)C(=O)NCC(N)=O ... 550 U/mg
NCC[C@H](NC(=O)[C@@H]1CCCN1C(=O)[C@@H]1CSSCCC(=O)N[C@@H](Cc2ccc(O)cc2)C(=O)N[C@@H](Cc2ccccc2)C(=O)N[C@@H](CCC(N)=O)C(=O)N[C@@H](CC(N)=O)C(=O)N1)C(=O)NCC(N)=O ([Mpa]YFQNCP[Dab]G-NH2; disulfide 1-6) ... 463 U/mg

# context switch: different molecule, same Activity
Exercise: Any idea what its Activity is? The molecule is CC(C)C[C@@H]1NC(=O)[C@H](Cc2ccccc2)NC(=O)[C@H](Cc2ccc(O)cc2)NC(=O)CCSSC[C@@H](C(=O)N2CCC[C@H]2C(=O)N[C@@H](CCCCN)C(=O)NCC(N)=O)NC(=O)[C@H](CC(N)=O)NC1=O ([Mpa]YFLNCPKG-NH2; disulfide 1-6)
Key: 10.5 U/mg

----------
# Species on record: Rattus norvegicus
# assay-protocol: Antidiuretic activity in rat
# Type: functional, Urine
Positions of bridges follow the written chain, without caps; N, C: chain ends. Non-standard residues stand in square brackets, D forms with d. Residues, ends and D or L forms follow the SMILES beside them. Cha = N[C@@H](CC1CCCCC1)C(=O)O; Orn = NCCC[C@H](N)C(=O)O; Dab = NCC[C@H](N)C(=O)O; Mpa = O=C(O)CCS
value-kind: Activity (U/mg)
Answer format: numeric, U/mg implied, no suffix.

Illustrative cases are given below, each with its answer.
N=C(N)NCCC[C@@H]1NC(=O)[C@H](Cc2ccccc2)NC(=O)[C@H](Cc2ccc(O)cc2)NC(=O)CCSSC[C@@H](C(=O)N2CCC[C@H]2C(=O)N[C@@H](CCCCN)C(=O)NCC(N)=O)NC(=O)[C@H](CC(N)=O)NC1=O ([Mpa]YFRNCPKG-NH2; disulfide 1-6) ... 784
NCCC[C@@H]1NC(=O)[C@H](Cc2ccccc2)NC(=O)[C@H](Cc2ccc(O)cc2)NC(=O)CCSSC[C@@H](C(=O)N2CCC[C@H]2C(=O)N[C@@H](CCCN)C(=O)NCC(N)=O)NC(=O)[C@H](CC(N)=O)NC1=O ([Mpa]YF[Orn]NCP[Orn]G-NH2; disulfide 1-6) ... 7.9
NCCC[C@H](NC(=O)[C@@H]1CCCN1C(=O)[C@@H]1CSSCCC(=O)N[C@@H](Cc2ccc(O)cc2)C(=O)N[C@@H](Cc2ccccc2)C(=O)N[C@@H](CCC(N)=O)C(=O)N[C@@H](CC(N)=O)C(=O)N1)C(=O)NCC(N)=O ... 486
NCCC[C@H](NC(=O)[C@@H]1CCCN1C(=O)[C@@H]1CSSCCC(=O)N[C@@H](Cc2ccc(O)cc2)C(=O)N[C@@H](Cc2ccccc2)C(=O)N[C@@H](CC2CCCCC2)C(=O)N[C@@H](CC(N)=O)C(=O)N1)C(=O)NCC(N)=O ([Mpa]YF[Cha]NCP[Orn]G-NH2; disulfide 1-6) ... 1
CC(C)C[C@@H]1NC(=O)[C@H](Cc2ccccc2)NC(=O)[C@H](Cc2ccc(O)cc2)NC(=O)CCSSC[C@@H](C(=O)N2CCC[C@H]2C(=O)N[C@@H](CCCNC(=N)N)C(=O)NCC(N)=O)NC(=O)[C@H](CC(N)=O)NC1=O ([Mpa]YFLNCPRG-NH2; disulfide 1-6) ... 378
N=C(N)NCCC[C@H](NC(=O)[C@@H]1CCCN1C(=O)[C@@H]1CSSCCC(=O)N[C@H](Cc2cccnc2)C(=O)N[C@@H](Cc2ccccc2)C(=O)N[C@@H](CCC(N)=O)C(=O)N[C@@H](CC(N)=O)C(=O)N1)C(=O)NCC(N)=O ... 1
CC(C)C[C@@H]1NC(=O)[C@H](Cc2ccccc2)NC(=O)[C@H](Cc2ccc(O)cc2)NC(=O)CCSSC[C@@H](C(=O)N2CCC[C@H]2C(=O)N[C@@H](CCN)C(=O)NCC(N)=O)NC(=O)[C@H](CC(N)=O)NC1=O ([Mpa]YFLNCP[Dab]G-NH2; disulfide 1-6) ... 5.7
N=C(N)NCCC[C@@H](NC(=O)[C@@H]1CCCN1C(=O)[C@@H]1CSSCCC(=O)N[C@@H](Cc2ccc(O)cc2)C(=O)N[C@@H](Cc2ccccc2)C(=O)N[C@@H](CCC(N)=O)C(=O)N[C@@H](CC(N)=O)C(=O)N1)C(=O)NCC(N)=O (stereo in doubt; form 1) [DESMOPRESSIN] ... 1745
N=C(N)NCCC[C@@H]1NC(=O)[C@H](Cc2ccccc2)NC(=O)[C@H](Cc2ccc(O)cc2)NC(=O)CCSSC[C@@H](C(=O)N2CCC[C@H]2C(=O)N[C@@H](CCCN)C(=O)NCC(N)=O)NC(=O)[C@H](CC(N)=O)NC1=O ([Mpa]YFRNCP[Orn]G-NH2; disulfide 1-6) ... 823
NC(=O)CNC(=O)[C@H](CCCN=C(N)N)NC(=O)[C@@H]1CCCN1C(=O)[C@@H]1CSSCCC(=O)N[C@@H](Cc2ccc(O)cc2)C(=O)N[C@@H](Cc2ccccc2)C(=O)N[C@@H](CCCN=C(N)N)C(=O)N[C@@H](CC(N)=O)C(=O)N1 ([Mpa]YFRNCPRG-NH2; disulfide 1-6) ... 748.32

Exercise: Any idea what its Activity is? The compound is NCCCC[C@H](NC(=O)[C@@H]1CCCN1C(=O)[C@@H]1CSSCCC(=O)N[C@@H](Cc2ccc(O)cc2)C(=O)N[C@@H](Cc2ccccc2)C(=O)N[C@@H](CC2CCCCC2)C(=O)N[C@@H](CC(N)=O)C(=O)N1)C(=O)NCC(N)=O ([Mpa]YF[Cha]NCPKG-NH2; disulfide 1-6)
Key: 0.82

Exercise: Any idea what its Activity is? The compound is N=C(N)NCCC[C@H](NC(=O)[C@@H]1CCCN1C(=O)[C@@H]1CSSC[C@H](N)C(=O)N[C@@H](Cc2ccc(O)cc2)C(=O)N[C@@H](Cc2ccccc2)C(=O)N[C@@H](CCC(N)=O)C(=O)N[C@@H](CC(N)=O)C(=O)N1)C(=O)NCC(N)=O
Key: 323

Exercise: Any idea what its Activity is? The compound is NC(=O)CNC(=O)[C@H](CCCN=C(N)N)NC(=O)[C@@H]1CCCN1C(=O)[C@@H]1CSSCCC(=O)N[C@@H](Cc2ccc(O)cc2)C(=O)N[C@@H](Cc2ccccc2)C(=O)N[C@@H](CC2CCCCC2)C(=O)N[C@@H](CC(N)=O)C(=O)N1 ([Mpa]YF[Cha]NCPRG-NH2; disulfide 1-6)
Key: 133.6

Exercise: Any idea what its Activity is? The compound is N=C(N)NCCC[C@@H]1NC(=O)[C@H](Cc2ccccc2)NC(=O)[C@H](Cc2ccc(O)cc2)NC(=O)CCSSC[C@@H](C(=O)N2CCC[C@H]2C(=O)N[C@@H](CCN)C(=O)NCC(N)=O)NC(=O)[C@H](CC(N)=O)NC1=O ([Mpa]YFRNCP[Dab]G-NH2; disulfide 1-6)
Key: 431

----------
# assay-system: Vasopressin V2 receptor (Rattus norvegicus, UniProt Q00788)
# Sequence (Q00788 whole entry): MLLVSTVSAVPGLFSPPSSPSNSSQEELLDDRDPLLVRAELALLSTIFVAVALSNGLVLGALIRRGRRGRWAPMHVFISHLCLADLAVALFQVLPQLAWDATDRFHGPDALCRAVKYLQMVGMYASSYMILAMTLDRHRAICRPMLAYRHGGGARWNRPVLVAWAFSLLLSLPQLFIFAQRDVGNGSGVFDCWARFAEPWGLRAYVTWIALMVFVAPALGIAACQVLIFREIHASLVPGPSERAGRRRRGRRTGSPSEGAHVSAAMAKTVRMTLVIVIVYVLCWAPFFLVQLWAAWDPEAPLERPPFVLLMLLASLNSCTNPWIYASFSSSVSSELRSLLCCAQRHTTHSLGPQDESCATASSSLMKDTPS
# assay-protocol: Displacement of [3H]AVP from vasopressin V2 receptor in rat kidney membranes
# Format: cell membranes, Membrane
Positions of bridges follow the written chain, without caps; N, C: chain ends. Non-standard residues stand in square brackets, D forms with d. Residues, ends and D or L forms follow the SMILES beside them. Cha = N[C@@H](CC1CCCCC1)C(=O)O; Orn = NCCC[C@H](N)C(=O)O; Dab = NCC[C@H](N)C(=O)O; Dap = NC[C@H](N)C(=O)O; Mpa = O=C(O)CCS
value-kind: Ki

Illustrative cases are given below, each with its answer.
N=C(N)NCCC[C@@H]1NC(=O)[C@H](Cc2ccccc2)NC(=O)[C@H](Cc2ccc(O)cc2)NC(=O)CCSSC[C@@H](C(=O)N2CCC[C@H]2C(=O)N[C@@H](CCCCN)C(=O)NCC(N)=O)NC(=O)[C@H](CC(N)=O)NC1=O ([Mpa]YFRNCPKG-NH2; disulfide 1-6) ... 3.8 nM (antagonist)
CC(C)C[C@@H]1NC(=O)[C@H](Cc2ccccc2)NC(=O)[C@H](Cc2ccc(O)cc2)NC(=O)CCSSC[C@@H](C(=O)N2CCC[C@H]2C(=O)N[C@@H](CN)C(=O)NCC(N)=O)NC(=O)[C@H](CC(N)=O)NC1=O ([Mpa]YFLNCP[Dap]G-NH2; disulfide 1-6) ... 240 nM (antagonist)
CC(C)C[C@@H]1NC(=O)[C@H](Cc2ccccc2)NC(=O)[C@H](Cc2ccc(O)cc2)NC(=O)CCSSC[C@@H](C(=O)N2CCC[C@H]2C(=O)N[C@@H](CCCN=C(N)N)C(=O)NCC(N)=O)NC(=O)[C@H](CC(N)=O)NC1=O ([Mpa]YFLNCPRG-NH2; disulfide 1-6) ... 3.1 nM (antagonist)

Exercise: Any idea what its Ki is? The compound is NCCC[C@@H]1NC(=O)[C@H](Cc2ccccc2)NC(=O)[C@H](Cc2ccc(O)cc2)NC(=O)CCSSC[C@@H](C(=O)N2CCC[C@H]2C(=O)N[C@@H](CCCN=C(N)N)C(=O)NCC(N)=O)NC(=O)[C@H](CC(N)=O)NC1=O ([Mpa]YF[Orn]NCPRG-NH2; disulfide 1-6)
Key: 3.4 nM (antagonist)

Exercise: Any idea what its Ki is? The compound is N=C(N)NCCC[C@H](NC(=O)[C@@H]1CCCN1C(=O)[C@@H]1CSSCCC(=O)N[C@H](Cc2cccnc2)C(=O)N[C@@H](Cc2ccccc2)C(=O)N[C@@H](CCC(N)=O)C(=O)N[C@@H](CC(N)=O)C(=O)N1)C(=O)NCC(N)=O
Key: 69 nM (antagonist)

Exercise: Any idea what its Ki is? The compound is CC(C)C[C@@H]1NC(=O)[C@H](Cc2ccccc2)NC(=O)[C@H](Cc2ccc(O)cc2)NC(=O)CCSSC[C@@H](C(=O)N2CCC[C@H]2C(=O)N[C@@H](CCCN)C(=O)NCC(N)=O)NC(=O)[C@H](CC(N)=O)NC1=O ([Mpa]YFLNCP[Orn]G-NH2; disulfide 1-6)
Key: 425 nM (antagonist)

Exercise: Any idea what its Ki is? The compound is NCCC[C@@H]1NC(=O)[C@H](Cc2ccccc2)NC(=O)[C@H](Cc2ccc(O)cc2)NC(=O)CCSSC[C@@H](C(=O)N2CCC[C@H]2C(=O)N[C@@H](CCCN)C(=O)NCC(N)=O)NC(=O)[C@H](CC(N)=O)NC1=O ([Mpa]YF[Orn]NCP[Orn]G-NH2; disulfide 1-6)
Key: 76 nM (antagonist)

Exercise: Any idea what its Ki is? The compound is CC(C)C[C@@H]1NC(=O)[C@H](Cc2ccccc2)NC(=O)[C@H](Cc2ccc(O)cc2)NC(=O)CCSSC[C@@H](C(=O)N2CCC[C@H]2C(=O)N[C@@H](CCCCN)C(=O)NCC(N)=O)NC(=O)[C@H](CC(N)=O)NC1=O ([Mpa]YFLNCPKG-NH2; disulfide 1-6)
Key: 100 nM (antagonist)

Exercise: Any idea what its Ki is? The compound is N=C(N)NCCC[C@@H](NC(=O)[C@@H]1CCCN1C(=O)[C@@H]1CSSCCC(=O)N[C@@H](Cc2ccc(O)cc2)C(=O)N[C@@H](Cc2ccccc2)C(=O)N[C@@H](CCC(N)=O)C(=O)N[C@@H](CC(N)=O)C(=O)N1)C(=O)NCC(N)=O (stereo in doubt; form 2) [DESMOPRESSIN]
Key: 0.3 nM (antagonist)

Exercise: Any idea what its Ki is? The compound is N=C(N)NCCC[C@@H](NC(=O)[C@@H]1CCCN1C(=O)[C@@H]1CSSCCC(=O)N[C@@H](Cc2ccc(O)cc2)C(=O)N[C@@H](Cc2ccccc2)C(=O)N[C@@H](CCC(N)=O)C(=O)N[C@@H](CC(N)=O)C(=O)N1)C(=O)NCC(N)=O (stereo in doubt; form 1) [DESMOPRESSIN]
Key: 0.8 nM (antagonist)

Exercise: Any idea what its Ki is? The compound is NC(=O)CNC(=O)[C@H](CCCN=C(N)N)NC(=O)[C@@H]1CCCN1C(=O)[C@@H]1CSSCCC(=O)N[C@@H](Cc2ccc(O)cc2)C(=O)N[C@@H](Cc2ccccc2)C(=O)N[C@@H](CC2CCCCC2)C(=O)N[C@@H](CC(N)=O)C(=O)N1 ([Mpa]YF[Cha]NCPRG-NH2; disulfide 1-6)
Key: 12.7 nM (antagonist)

Exercise: Any idea what its Ki is? The compound is NCC[C@H](NC(=O)[C@@H]1CCCN1C(=O)[C@@H]1CSSCCC(=O)N[C@@H](Cc2ccc(O)cc2)C(=O)N[C@@H](Cc2ccccc2)C(=O)N[C@@H](CC2CCCCC2)C(=O)N[C@@H](CC(N)=O)C(=O)N1)C(=O)NCC(N)=O ([Mpa]YF[Cha]NCP[Dab]G-NH2; disulfide 1-6)
Key: 450 nM (antagonist)

Exercise: Any idea what its Ki is? The compound is CC(C)[C@@H]1NC(=O)[C@H](Cc2ccccc2)NC(=O)[C@H](Cc2ccc(O)cc2)NC(=O)CCSSC[C@@H](C(=O)N2CCC[C@H]2C(=O)N[C@@H](CCCN=C(N)N)C(=O)NCC(N)=O)NC(=O)[C@H](CC(N)=O)NC1=O ([Mpa]YFVNCPRG-NH2; disulfide 1-6)
Key: 0.3 nM (antagonist)

Exercise: Any idea what its Ki is? The compound is N=C(N)NCCC[C@@H]1NC(=O)[C@H](Cc2ccccc2)NC(=O)[C@H](Cc2ccc(O)cc2)NC(=O)CCSSC[C@@H](C(=O)N2CCC[C@H]2C(=O)N[C@@H](CCCN=C(N)N)C(=O)NCC(N)=O)NC(=O)[C@H](CC(N)=O)NC1=O ([Mpa]YFRNCPRG-NH2; disulfide 1-6)
Key: 0.2 nM (antagonist)
